experiment: in vitro; settings: cattle, cell culture medium containing 25% fetal bovine serum
Description: Stability in cell culture medium containing 25% fetal bovine serum assessed as compound remaining at 80 uM at 37 degreeC measured after 4 hrs by RP-HPLC analysis
Where a SMILES comes first, the peptide text is derived from it.

# MOLECULE, remaining at 4 h, 80 µM
data = [
    ("CC(=O)N[C@@H](CCCCN)C(=O)N[C@@H](CCCNC(=N)N)C(=O)N[C@@H](CCCCN)C(=O)N[C@@H](C)C(=O)N[C@@H](Cc1ccc(O)cc1)C(=O)N[C@@H](CCCCN)C(=O)N[C@@H](CCCNC(=N)N)C(=O)N[C@@H](CCCCN)C(=O)N[C@@H](C)C(=O)N[C@@H](Cc1ccc(O)cc1)C(=O)N[C@@H](CCCCN)C(=O)N[C@@H](CCCNC(=N)N)C(=O)N[C@@H](CCCCN)C(=O)N[C@@H](C)C(=O)N[C@@H](CO)C(N)=O (Ac-KRKAYKRKAYKRKAS-NH2)", "~50%"),
]
